What Cmax was measured for each of the following?
- ASSAY: Pharmacokinetic properties in C57Bl/6 mice
- Format: in vivo
- DETAILS: mouse, plasma, 2 mg/kg IP
Give bare numbers, in ng/mL.

INSERT INTO results (chemical_smiles, endpoint_result) VALUES
  ('CO[C@H]1C[C@@H]2CC[C@@H](C)[C@@](O)(O2)C(=O)C(=O)N2CCCC[C@H]2C(=O)O[C@H]([C@H](C)C[C@@H]2CC[C@@H](O)[C@H](OC)C2)CC(=O)[C@H](C)/C=C(\C)[C@@H](O)[C@@H](OC)C(=O)[C@H](C)C[C@H](C)/C=C/C=C/C=C/1C', 614);

API: the following record is the query input.
[in] Look up Cmax: "CO[C@@H]1C[C@H](C[C@@H](C)[C@@H]2CC(=O)[C@H](C)/C=C(\C)[C@@H](O)[C@@H](OC)C(=O)[C@H](C)C[C@H](C)/C=C/C=C/C=C(\C)[C@@H](OCCOCCOCCO)C[C@@H]3CC[C@@H](C)[C@@](O)(O3)C(=O)C(=O)N3CCCC[C@H]3C(=O)O2)CC[C@H]1O"
[out] 2590
